Target Or Test System: Scavenger receptor class B member 1 (Mus musculus)
Assay Procedure: SR-BI mediated DiI-HDL lipid uptake blockers – ldlA[mSR-BI] CHO cells, fluorescence plate reader, dry powder, set 8, dose response (AID 602285)
Test Context: 3 h
The source made the active and inactive calls.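 How the source made its calls: active means AC50 at or below twice the top valid dose for that sample, with falling signal; inconclusive means flat curve with inhibition of 30 to 70%, or poor fit; inactive means activity in the wrong direction, plus the rest.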
Assay Readout: AC50

| Smiles Representation | Assay Readout | Result |
| --- | --- | --- |
| C[C@@H]1CN([C@H](C)CO)C(=O)c2cc(NC(=O)CCCN(C)C)ccc2O[C@H]1CN(C)S(=O)(=O)c1ccc(Cl)cc1 | AC50 | > 70000 nM (inactive) |
| C[C@@H]1CN([C@H](C)CO)C(=O)c2cc(NC(=O)Cc3cn(C)c4ccccc34)ccc2O[C@H]1CN(C)Cc1ccc2c(c1)OCO2 | AC50 | 865 nM |
| C[C@H](C(=O)NC1CCCC1)N(C(=O)Cn1nnc(-c2ccc3c(c2)OCO3)n1)C1CCCCC1 | AC50 | 37.4 nM |
| C[C@@H]1CN([C@H](C)CO)C(=O)c2cc(NC(=O)c3ccncc3)ccc2O[C@H]1CN(C)S(=O)(=O)c1ccc(Cl)cc1 | AC50 | 593 nM |
| C[C@@H]1CN([C@H](C)CO)C(=O)c2cc(NC(=O)Cn3cnnn3)ccc2O[C@H]1CN(C)S(=O)(=O)c1ccc(Cl)cc1 | AC50 | 10300 nM |
| C[C@@H]1CN([C@H](C)CO)C(=O)c2cc(NS(=O)(=O)c3ccc(F)cc3)ccc2O[C@H]1CN(C)S(=O)(=O)c1ccc(Cl)cc1 | AC50 | 13700 nM |
| O=C(C[C@H]1CC[C@H](NC(=O)CC2CC2)[C@@H](CO)O1)NCc1ccc(Cl)cc1 | AC50 | > 70000 nM (inactive) |
| COc1ccc(S(=O)(=O)Nc2ccc3c(c2)C(=O)N([C@H](C)CO)C[C@@H](C)[C@H](CN(C)S(=O)(=O)c2ccc(Cl)cc2)O3)cc1 | AC50 | 2690 nM |
| COCC(=O)N1CCc2cc(-c3csc(NC(=O)c4cc(OC)cc(OC)c4)n3)ccc21 | AC50 | < 15 nM |
| C[C@@H]1CN([C@H](C)CO)C(=O)c2cc(NC(=O)Cc3cn(C)c4ccccc34)ccc2O[C@H]1CN(C)S(=O)(=O)c1ccc(F)cc1 | AC50 | 1110 nM |
| C[C@H]1CN([C@@H](C)CO)C(=O)c2cc(NC(=O)Cc3cn(C)c4ccccc34)ccc2O[C@@H]1CN(C)S(=O)(=O)c1ccc(Cl)cc1 | AC50 | 17400 nM |
| C[C@@H]1CN([C@H](C)CO)C(=O)c2cc(NC(=O)Cc3cn(C)c4ccccc34)ccc2O[C@H]1CN(C)S(=O)(=O)c1ccccc1 | AC50 | 215 nM |
| C[C@@H]1CN([C@H](C)CO)C(=O)c2cc(NC(=O)Nc3ccc4c(c3)OCO4)ccc2O[C@H]1CN(C)S(=O)(=O)c1ccc(Cl)cc1 | AC50 | 856 nM |
| C[C@@H]1CN([C@H](C)CO)C(=O)c2cc(NS(=O)(=O)c3cn(C)cn3)ccc2O[C@H]1CN(C)S(=O)(=O)c1ccc(Cl)cc1 | AC50 | 3390 nM |

====

Target Or Test System: Scavenger receptor class B member 1 (Mus musculus) (UniProt Q61009)
Sequence (Q61009 whole entry, looked up): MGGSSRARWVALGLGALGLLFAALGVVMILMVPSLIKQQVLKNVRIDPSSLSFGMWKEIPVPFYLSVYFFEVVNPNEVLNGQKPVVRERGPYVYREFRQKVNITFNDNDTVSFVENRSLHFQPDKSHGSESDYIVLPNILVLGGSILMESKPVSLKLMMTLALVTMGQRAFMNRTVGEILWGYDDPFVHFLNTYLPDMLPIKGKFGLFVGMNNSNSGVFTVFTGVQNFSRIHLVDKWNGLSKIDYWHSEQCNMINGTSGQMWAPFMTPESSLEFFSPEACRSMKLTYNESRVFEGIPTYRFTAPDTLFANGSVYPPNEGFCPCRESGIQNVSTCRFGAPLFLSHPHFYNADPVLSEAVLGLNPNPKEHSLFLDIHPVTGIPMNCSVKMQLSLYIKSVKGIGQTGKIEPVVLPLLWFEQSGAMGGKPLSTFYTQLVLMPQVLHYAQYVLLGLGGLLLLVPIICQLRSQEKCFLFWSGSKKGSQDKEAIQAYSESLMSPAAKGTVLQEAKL
Assay Procedure: SR-BI mediated DiI-HDL lipid uptake blockers – ldlA[mSR-BI] CHO cells, fluorescence plate reader, dry powder, set 8, dose response (AID 602285)
Test Context: 3 h
The source made the active and inactive calls.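 Rule for the calls: active = AC50 at or below twice the top valid dose for that sample, with falling signal; inconclusive = flat curve with inhibition of 30 to 70%, or poor fit; inactive = activity in the wrong direction, plus the rest.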
Classes used: YES (active), NO (inactive)

| Smiles Representation | Category Label |
| --- | --- |
| C[C@@H]1CN([C@H](C)CO)C(=O)c2cc(NC(=O)Nc3cccc4ccccc34)ccc2O[C@H]1CN(C)S(=O)(=O)c1ccc(Cl)cc1 | YES |
| COc1ccc(CN(C)C[C@@H]2Oc3ccc(NC(=O)Cc4cn(C)c5ccccc45)cc3C(=O)N([C@H](C)CO)C[C@H]2C)cc1 | YES |
| C[C@@H]1CN([C@H](C)CO)C(=O)c2cc(NC(=O)Cc3cn(C)c4ccccc34)ccc2O[C@H]1CN(C)Cc1ccc(C(F)(F)F)cc1 | YES |
| C[C@@H]1CN([C@H](C)CO)C(=O)c2cc(NC(=O)C3CCCCC3)ccc2O[C@H]1CN(C)S(=O)(=O)c1ccc(Cl)cc1 | YES |
| C[C@@H]1CN([C@H](C)CO)C(=O)c2cc(NC(=O)Cc3cn(C)c4ccccc34)ccc2O[C@H]1CN(C)S(C)(=O)=O | YES |
| C[C@@H]1CN([C@H](C)CO)C(=O)c2cc(NC(=O)C3CC3)ccc2O[C@H]1CN(C)S(=O)(=O)c1ccc(Cl)cc1 | YES |
| C[C@@H]1CN([C@H](C)CO)C(=O)c2cc(NC(=O)Cc3cn(C)c4ccccc34)ccc2O[C@H]1CN(C)Cc1ccc(C(=O)Nc2ccccc2N)cc1 | YES |
| C[C@@H]1CN([C@@H](C)CO)C(=O)c2cc(NC(=O)Cc3cn(C)c4ccccc34)ccc2O[C@H]1CN(C)S(=O)(=O)c1ccc(Cl)cc1 | YES |
| C[C@@H]1CN([C@H](C)CO)C(=O)c2cc(NC(=O)Cc3cn(C)c4ccccc34)ccc2O[C@H]1CN(C)C(=O)Nc1ccc(F)cc1 | YES |
| C[C@@H]1CN([C@H](C)CO)C(=O)c2cc(NC(=O)NC3CCCCC3)ccc2O[C@H]1CN(C)S(=O)(=O)c1ccc(Cl)cc1 | YES |
| CO[C@H]1CN(C)C(=O)c2cc(NC(=O)c3ccccc3F)ccc2OC[C@@H](C)N(C(C)=O)C[C@@H]1C | NO |
| C[C@@H]1CN([C@H](C)CO)C(=O)c2cc(NC(=O)Cc3cn(C)c4ccccc34)ccc2O[C@H]1CN(C)C(=O)Nc1ccc(C(F)(F)F)cc1 | YES |
| COc1cc(OC)cc(C(=O)Nc2nc(-c3ccc4c(c3)CCN4C(=O)CN3CCOCC3)cs2)c1 | YES |
| Cc1ccc(S(=O)(=O)N(C)C[C@@H]2Oc3ccc(NC(=O)Cc4cn(C)c5ccccc45)cc3C(=O)N([C@H](C)CO)C[C@H]2C)cc1 | YES |
